- measured_on: KRAS G13D (Homo sapiens (Human), UniProt P01116+P62937, G13D)
- Sequence (P01116-2 other isoform, or with tags, fused parts or gaps G13D, one chain of several): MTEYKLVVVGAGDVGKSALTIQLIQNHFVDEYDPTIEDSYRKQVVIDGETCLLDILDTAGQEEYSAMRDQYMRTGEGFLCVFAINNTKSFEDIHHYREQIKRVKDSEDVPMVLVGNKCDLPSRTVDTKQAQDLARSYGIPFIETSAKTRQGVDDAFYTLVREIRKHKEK
- assay_summary: Ras-Raf (BRAF RBD) disruption / FRET / MOA assay, KRAS G13D
- Format: biochemical
- test_settings: read-out: IC50* KRAS G13D FRET data
readout_label: IC50

>>> result("C=CC(=O)N1CCN(C(=O)N(C)[C@H](C(=O)N[C@H]2Cc3cc(O)cc(c3)-c3ccc4c(c3)c(c(-c3cccnc3[C@H](C)OC)n4CC)CC(C)(C)COC(=O)[C@@H]3CCCN(N3)C2=O)C(C)C)CC1 (atropisomer, axis not shown)")
"10 to 100 nM"
>>> result("C=CC(=O)N1CC[C@H](C(=O)N(C)[C@H](C(=O)N[C@H]2Cc3cccc(c3)-c3ccc4c(c3)c(c(-c3cccnc3[C@H](C)OC)n4CC)CC(C)(C)COC(=O)[C@@H]3CCCN(N3)C2=O)C(C)C)[C@@H]1C (atropisomer, axis not shown)")
"> 10000 nM"
>>> result("C=C(C)C(=O)N1CC(N(C)C(=O)N(C)[C@H](C(=O)N[C@H]2Cc3nc(cs3)-c3ccc4c(c3)c(c(-c3cccnc3[C@H](C)OC)n4CC)CC(C)(C)COC(=O)[C@@H]3CCCN(N3)C2=O)C(C)C)C1 (atropisomer, axis not shown)")
"1000 to 10000 nM"
>>> result("CC#CC(=O)N1CC[C@@H](C(=O)N(C)[C@H](C(=O)N[C@H]2Cc3cccc(c3)-c3ccc4c(c3)c(c(-c3cccnc3[C@H](C)OC)n4CC)CC(C)(C)COC(=O)[C@@H]3CCCN(N3)C2=O)C(C)C)C1 (atropisomer, axis not shown)")
"1000 to 10000 nM"

====

- measured_on: KRAS G12S (Homo sapiens (Human), UniProt P01116+P62937, G12S)
- Sequence (P01116-2 other isoform, or with tags, fused parts or gaps G12S): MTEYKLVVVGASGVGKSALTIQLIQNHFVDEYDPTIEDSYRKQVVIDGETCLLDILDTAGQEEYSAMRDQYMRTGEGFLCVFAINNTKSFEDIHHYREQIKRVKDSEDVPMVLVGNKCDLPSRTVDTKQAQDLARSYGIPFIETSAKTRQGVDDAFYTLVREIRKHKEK
- Sequence (P62937 whole entry): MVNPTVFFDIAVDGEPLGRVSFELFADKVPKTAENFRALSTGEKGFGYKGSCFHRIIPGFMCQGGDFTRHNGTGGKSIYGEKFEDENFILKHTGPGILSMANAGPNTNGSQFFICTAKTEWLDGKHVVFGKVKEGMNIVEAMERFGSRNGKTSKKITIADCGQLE
- assay_summary: Ras-Raf (BRAF RBD) disruption / FRET / MOA assay, KRAS G12S
- Format: biochemical
- test_settings: Ras-Raf disruption/FRET/MOA assay; class symbols; read-out: KRAS G12S FRET data IC50
pIC50: −log10 of the molar value.
Reported pIC50 values are given for each entry in this list.
readout_label: pIC50

>>> result("CO[C@@H](C)c1ncccc1-c1c2c3cc(ccc3n1CC(F)(F)F)-c1cccc(c1)C[C@H](NC(=O)[C@@H](COC1CN(C(=O)C#CC(C)(C)N(C)C)C1)C(C)C)C(=O)N1CCC[C@H](N1)C(=O)OCC(C)(C)C2 (atropisomer, axis not shown)")
"5.00 to 6.00"
>>> result("C=CC(=O)N1CC2(CCN([C@H](C(=O)N[C@H]3Cc4cc(O)cc(c4)-c4ccc5c(c4)c(c(-c4cccnc4[C@H](C)OC)n5CC)CC(C)(C)COC(=O)[C@@H]4CCCN(N4)C3=O)C(C)C)C2=O)C1 (atropisomer, axis not shown)")
"7.00 to 8.00"

====

- measured_on: NRAS Q61R (Homo sapiens (Human), UniProt P01111+P62937, Q61R)
- Sequence (P01111 whole entry Q61R): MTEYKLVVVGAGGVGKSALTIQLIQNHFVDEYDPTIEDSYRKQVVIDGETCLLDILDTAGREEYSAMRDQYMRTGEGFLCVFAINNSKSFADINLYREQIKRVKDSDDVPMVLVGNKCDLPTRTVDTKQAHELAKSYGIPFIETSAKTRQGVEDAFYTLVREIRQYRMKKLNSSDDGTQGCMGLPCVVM
- Sequence (P62937 whole entry): as the sequence (P62937 whole entry) above
- assay_summary: Ras-Raf (BRAF RBD) disruption / FRET / MOA assay, NRAS Q61R
- Type: biochemical
- test_settings: NRAS Q61R; Ras-Raf disruption/FRET/MOA assay; read-out: IC50* NRAS Q61R FRET data
readout_label: IC50

>>> result("C=CC(=O)N1CCOC2(C1)CN(C(=O)N(C)[C@H](C(=O)N[C@H]1Cc3nc(cs3)-c3ccc4c(c3)c(c(-c3cccnc3[C@H](C)OC)n4CC(F)(F)F)CC(C)(C)COC(=O)[C@@H]3CCCN(N3)C1=O)C(C)C)C2 (atropisomer, axis not shown)")
"0.1 to 1 µM"
>>> result("CCn1c(-c2cccnc2[C@H](C)OC)c2c3cc(ccc31)-c1csc(n1)C[C@H](NC(=O)C[C@H](C)OC1CN(C(=O)C#CC(C)(C)N(C)C)C1)C(=O)N1CCC[C@H](N1)C(=O)OCC(C)(C)C2 (atropisomer, axis not shown)")
"> 10 µM"
>>> result("CO[C@@H](C)c1ncccc1-c1c2c3cc(ccc3n1CC(F)(F)F)-c1nc(nn1C)C[C@H](NC(=O)[C@H](C(C)C)N(C)C(=O)C1(F)CCN(C(=O)C#CC(C)(C)N(C)C)CC1)C(=O)N1CCC[C@H](N1)C(=O)OCC(C)(C)C2 (atropisomer, axis not shown)")
"0.01 to 0.1 µM"
>>> result("C=CC(=O)N1CC2(CCN(C(=O)N(C)[C@H](C(=O)N[C@H]3Cc4nc(cs4)-c4ccc5c(c4)c(c(-c4cccnc4[C@H](C)OC)n5CC)CC(C)(C)COC(=O)[C@@H]4CCCN(N4)C3=O)C(C)C)CC2)C1 (atropisomer, axis not shown)")
"0.1 to 1 µM"
>>> result("C=CC(=O)N1CCOC2(CCN(C(=O)N(C)[C@H](C(=O)N[C@H]3Cc4cccc(n4)-c4ccc5c(c4)c(c(-c4cccnc4[C@H](C)OC)n5CC(F)(F)F)CC(C)(C)COC(=O)[C@@H]4CCCN(N4)C3=O)C(C)C)CC2)C1 (atropisomer, axis not shown)")
"0.1 to 1 µM"
>>> result("C=CC(=O)N1CC[C@H](C(=O)N(C)[C@H](C(=O)N[C@H]2Cc3cc(O)cc(c3)-c3ccc4nc(-c5cccnc5[C@H](C)OC)n(c4c3)CC(C)(C)COC(=O)[C@@H]3CCCN(N3)C2=O)C(C)C)C1")
"> 10 µM"
>>> result("CCn1c(-c2cccnc2[C@H](C)OC)c2c3cc(ccc31)N1CCC[C@@H](C[C@H](NC(=O)[C@H](C(C)C)N(C)C(=O)C3(F)CCN(C(=O)C#CC(C)(C)N(C)C)CC3)C(=O)N3CCC[C@H](N3)C(=O)OCC(C)(C)C2)C1 (atropisomer, axis not shown)")
"> 10 µM"
>>> result("CCn1c(-c2cccnc2[C@H](C)OC)c2c3cc(ccc31)-c1csc(n1)C[C@H](NC(=O)CCOC1CN(C(=O)C#CC(C)(C)N(C)C)C1)C(=O)N1CCC[C@H](N1)C(=O)OCC(C)(C)C2 (atropisomer, axis not shown)")
"> 10 µM"

====

- measured_on: KRAS Q61H (Homo sapiens (Human), UniProt P01116+P62937, Q61H)
- Sequence (P01116-2 other isoform, or with tags, fused parts or gaps Q61H, one chain of several): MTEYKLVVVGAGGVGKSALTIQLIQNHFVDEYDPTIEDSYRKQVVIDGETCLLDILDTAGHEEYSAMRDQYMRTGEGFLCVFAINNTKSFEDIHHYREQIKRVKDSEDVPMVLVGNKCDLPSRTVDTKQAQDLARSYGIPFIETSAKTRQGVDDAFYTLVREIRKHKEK
- assay_summary: Ras-Raf (BRAF RBD) disruption / FRET / MOA assay, KRAS Q61H
- Assay type: biochemical
- test_settings: Ras-Raf disruption/FRET/MOA assay; class symbols; read-out: KRAS Q61H FRET data IC50
readout_label: IC50

>>> result("C=CC(=O)N1CC[C@H](C(=O)N(C)[C@H](C(=O)N[C@H]2Cc3cccc(c3)-c3ccc4c(c3)c(c(-c3cccnc3[C@H](C)OC)n4CC)CC(C)(C)COC(=O)[C@@H]3CCCN(N3)C2=O)C(C)C(F)(F)F)C1 (some centres unmarked) [Example A641]")
"1000 to 10000 nM"
>>> result("C=CC(=O)N1CC[C@H](C(=O)N(C)[C@H](C(=O)N[C@H]2Cc3nc(ns3)-c3ccc4c(c3)c(c(-c3cncnc3)n4CC)CC(C)(C)COC(=O)[C@@H]3CCCN(N3)C2=O)C(C)C)C1 [Example A285]")
"> 10000 nM"
>>> result("CCn1c(-c2cccnc2[C@H](C)OC)c2c3cc(ccc31)-c1csc(n1)C[C@H](NC(=O)[C@H](C(C)C)N(C)C(=O)N1CCN(C(=O)/C=C/CN(C)C)C[C@@H]1C)C(=O)N1CCC[C@H](N1)C(=O)OCC(C)(C)C2 (atropisomer, axis not shown) [Example A709]")
"10 to 100 nM"
>>> result("CO[C@@H](C)c1ncccc1-c1c2c3cc(ccc3n1CC(F)(F)F)-c1cccc(c1)C[C@H](NC(=O)[C@H](C(C)C)N(C)C(=O)N1CCC3(CC1)CN(C(=O)/C=C/CN(C)C)C3)C(=O)N1CCC[C@H](N1)C(=O)OCC(C)(C)C2 (atropisomer, axis not shown) [Example A555]")
"100 to 1000 nM"
>>> result("C=CC(=O)N1CCC(F)(C(=O)N(C)[C@H](C(=O)N[C@H]2C[C@H]3CN(CCO3)c3ccc4c(c3)c(c(-c3cccnc3[C@H](C)OC)n4CC)CC(C)(C)COC(=O)[C@@H]3CCCN(N3)C2=O)C(C)C)CC1 (atropisomer, axis not shown) [Example A722]")
"1000 to 10000 nM"
>>> result("C=CC(=O)N1CC[C@H](C(=O)N(C)[C@H](C(=O)N[C@H]2Cc3cc(O)cc(c3)-c3ccc4c(c3)c(c(-c3cccnc3[C@H](CC)OC)n4CC)CC(C)(C)COC(=O)[C@@H]3CCCN(N3)C2=O)C(C)C)C1 (atropisomer, axis not shown) [Example A181]")
"10 to 100 nM"
>>> result("CCn1c(-c2cccnc2[C@H](C)OC)c2c3cc(ccc31)-c1cccc(c1)C[C@H](NC(=O)[C@H](C(C)C)N(C)C(=O)N1CCC13CN(C(=O)C#CC(C)(C)N(C)C)C3)C(=O)N1CCC[C@H](N1)C(=O)OCC(C)(C)C2 [Example A672]")
"10 to 100 nM"
>>> result("C=CC(=O)N1CCOC2(CCN(C(=O)N(C)[C@H](C(=O)N[C@H]3Cc4cc(CF)cc(c4)-c4ccc5c(c4)c(c(-c4cccnc4[C@H](C)OC)n5CC(F)(F)F)CC(C)(C)COC(=O)[C@@H]4CCCN(N4)C3=O)C(C)C)CC2)C1 (atropisomer, axis not shown) [Example A605]")
"10 to 100 nM"

Just for reference, patent US11566007B2 is where these values come from.
